B1: glmS ribozyme (parent)
chain: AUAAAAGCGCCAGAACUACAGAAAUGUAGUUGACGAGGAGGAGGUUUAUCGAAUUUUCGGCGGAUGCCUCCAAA

- Variants of: B1
- EXPERIMENT: self-cleavage kobs at 640 uM GlcN6P; higher = faster cleavage; RNA array
- CONDITION INFO: with glucosamine-6-phosphate
This sample holds only a part of the variants without activity.
self-cleavage kobs at 640 uM GlcN6P values by entry
VALUE KIND: self-cleavage kobs at 640 uM GlcN6P (s⁻¹)

                               item_sequence  comparison_operator  recorded_value
 0  AUAAAAGCGCCAGAAGUACAGAAAUGUAGUUGACGAGGCGGAGGUUUAUCGAAUUUUCGGCGGAUGCCUCCAAA [C16G A39C]                    =        0.000184
 1  AUAAAAGCGCCAGAACUACAGAAAUGUAGUUGACUAGGAGGAGGUUUAUCGAAUUUUCGGCAGAUGCCUCCAAA [G35U G62A]                    <           1e-05
 2  AUAAAAGCGCCAGAACUACAGAAAUGUAGAUGACGAGGAGGAGGUUUAUCGAAUUUUCGGUGGAUGCCUCCAAA [U30A C61U]                    <           1e-05
 3  AUAAAAGCGCCAGAAAUACAGAAAUGUAGUUGACGACGAGGAGGUUUAUCGAAUUUUCCGCGGAUGCCUCCAAA [C16A G37C G59C]                    <           1e-05
 4  AUAAAAGCGCAAGAACUACAGAAAUGUAGUUGACGAGGAGGAGGUUUAUGGAAUUUGCGGCGGAUGCCUCCAAA [C11A C50G U57G]                    =        8.51e-05
 5  AUAAAUGCGCCAGAAUUACAGAAAUGUAGUUGACGAGGAGGAGGUUUAUCGAAUUUUCGGCGGAUGCCUCCAAA [A6U C16U]                    =        6.36e-05
 6  AUAAAAGCGCCAGAACUACAGAAAUGUAGUUGACGAGGAGGAGGUUUAUGGAAUUUUCGGCGGAUGGCUUAAAA [C50G C67G C70U C71A]                    =        0.000149
 7  AUAAAAGCGCCAGAGCUACAGAAAUGUAUUUGACGAGGAGGAGGUUUAUCGAACUUUCGGCGGAUGCCUCCAAA [A15G G29U U54C]                    =        0.000321
 8  AUAAAAGGGCCAGAACUACAGAAAUGUAGUUGACGAGGAGGAGGUUUAUCGAAUUUUUGGCGGAUGCCUCCAAA [C8G C58U]                    <           1e-05
 9  AUAAAAGCGCCCGAACUACAGAAAUGUAUUUGACGAGGAGGAGGUUGAUCGAAUUUUCGGCGGAUGCCUCCAAA [A12C G29U U47G]                    =        0.000151
10  AUAAAAGCGCCAGACCUACAGAAAUGUAGUUGUCGCGGAGGAGGUUUCUCGAAUUUUCGGCGGAUGCCUCCAAA [A15C A33U A36C A48C]                    <           1e-05
11  AUAAAAGCGCCGGAACUACAGAAAUGUAGUUGACGACGAGGAGGUUUAUCGAAUUUACGGCGGAUGCCUCCAAA [A12G G37C U57A]                    <           1e-05
12  AUAAAGGCGCCAGAACUACAGAAAUGUAGUUGACGAGGAGGAGGUUUAUCGAAAUUUCGGCGGAUGCCUCCAAA [A6G U54A]                    =        0.000143
13  AUAAAAGCGCCAGAACUACAGAAAUGUAGUUGACCUGGAAGAGGUUUAUCGAAUUUUCGGCGGAUGCCUCCAAA [G35C A36U G40A]                    <           1e-05
14  AUAAAAGCGCCAGAACUACAGAAAUGUAGUUGACGACGAGGAGGUUUAUCGAAUUUUCGGCGGACGCCUCCAAA [G37C U65C]                    <           1e-05
15  AUAAAAGCGCCCGAACUACAGAAAUGUAGUUGACGAGGAGGAGGUUUAUCGAAUUUUCGGCGGGUGCCUCCAAA [A12C A64G]                    =        0.000111
16  AUAAAAGCGCCAGAACUACAGAAAUGUAGUGAACGAGGAGGAGGUUUAUCGAAUUUUCGGCGGAUGCCUCCAAA [U31G G32A]                    =        0.000366
17  AUAAAAGCGCCAGGACUACAGAAAUGUAGUUGACUAGGAGGAGGUUUAUCGAAUUUUCGGCGGAUGCCUCCAAA [A14G G35U]                    <           1e-05
18  AUAAAAGCGCCAGAAGUACAGAAAUGUAGUUGACGAGGAGGAGCUUUAUCGAAUUUUCGGCGGAUGCCUCCAAA [C16G G44C]                    <           1e-05
19  AUAAAAGCGCUAGAACUACAGAAAUGUAGUUGACAAGGAGGAGGUUUAUCGAAUUUUCGGCGGAUGCCUCCAAA [C11U G35A]                    <           1e-05
20  AUAAAAGCGCCAGUACUACAGAAAUGUAGUUGACGCGGAGGAGGUUUAUCGAAUUUUCGGCGGUUGCCUCCAAA [A14U A36C A64U]                    <           1e-05
21  AUAAAAGCGCCAGAGCUACAGAAAUGUAAUUGACGAGGAGGCGGUUUAUCGAAUUUUCGGCGGAUGCCUCCAAA [A15G G29A A42C]                    <           1e-05
22  AUAAAAGCGCCAGAACUACAGAAAUGUAGUCGACGAGGAGGAGGUUUAUCGAAUUUUCGGCGGAUGCCUUCAAA [U31C C70U]                    =        0.000731
23  AUAAAAGCGCCAGAACUACAGAAAUGUAGUUGACGAGGAGGGGGUUUAUCGAAUUUUCGGGGGAUGCCUCCAAA [A42G C61G]                    <           1e-05
24  AUAAAAGCGACAGAACUACAGAAAUGUAGUUGACGAGGAGGAGGUUUAUCGAAUUAUCGGCGGAUGCCUUCAAA [C10A U56A C70U]                    =        6.36e-05
25  AUAAAAGCGCCAGAACUACAGAAAUGUAGUUGACGAGGAGGAGGUUUUUCGAAUUUUCGGCGGAUGCCUCGAAA [A48U C71G]                    =        4.04e-05
26  AUAAAAGCGCCAGAACUACAGAAAUGUAGUUGUCGAGGAGGAGGUUUAGCGAAUUUUCGGCGGAUGCCUCCAAA [A33U U49G]                    <           1e-05
27  AUAAAAGCGCCAGAACUACAGAAAUGUAGUUGACGAGGAGGAUGUUUAUCGAAUUUUCGGCGGAUGCCGCCAAA [G43U U69G]                    <           1e-05
28  AUAAAAGCGCCGGAACUACAGAAAUGUAGUUGACGAGGAUGAGGUUUAUCGAAUUUUCGGCCGAUGCCUCCAAA [A12G G40U G62C]                    <           1e-05
29  AUAAAAGCGCCAGAACUACAGAAAUGUAGUUGACGAGGAGGAGGUGUAUCGAAUUUUCGGCGGAUGCCCCCAAA [U46G U69C]                    =         0.00072
30  AUAAAAGCGCCAGAACUACAGAAAUGUAGUUGACGAGGAGGAGGUUUAUCGACAUUUCGGCGGAUGCCUCCAAA [A53C U54A]                    =         0.00128
